System: Vero E6 infected with SARS-CoV-2
Test: inhibition of SARS-CoV-2 cytopathic effect; higher = more antiviral protection, active = above 15
Conditions: 8.33 nM; 48 h
measurement type: inhibition of SARS-CoV-2 cytopathic effect (%)
Give the value, in units of %, as a plain number.

Example molecules with recorded inhibition of SARS-CoV-2 cytopathic effect:
INSERT INTO results (molecule, measurement_target, test_result) VALUES
  ('N#CC1(c2ccc(NC(=O)c3cccnc3NCc3ccncc3)cc2)CCCC1', 'Vero E6 infected with SARS-CoV-2', 0.67),
  ('C[C@]12C[C@H](O)[C@H]3[C@@H](CCC4=CC(=O)CC[C@@]43C)[C@@H]1CC[C@@H]2C(=O)CO', 'Vero E6 infected with SARS-CoV-2', -0.88),
  ('CN(C)C(=N)NCCC[C@H](N)C(=O)O', 'Vero E6 infected with SARS-CoV-2', -0.09),
  ('CCS(=O)(=O)N1CCC([C@@H](C)n2c(C)c(C(=O)NCc3c(OC)cc(C)[nH]c3=O)c3ccccc32)CC1', 'Vero E6 infected with SARS-CoV-2', 2.34),
  ('C[C@H]1C[C@H]2[C@@H]3CCC4=CC(=O)C=C[C@]4(C)[C@H]3C(=O)C[C@]2(C)[C@@]1(O)C(=O)CO', 'Vero E6 infected with SARS-CoV-2', 0.92),
  ('C[N+]1([O-])[C@@H]2C[C@@H](OC(=O)[C@H](CO)c3ccccc3)C[C@H]1[C@@H]1O[C@@H]12 (stereo partly drawn) [scopolamine-N-oxide]', 'Vero E6 infected with SARS-CoV-2', 4.58),
  ('CC(=O)Nc1cc([As](=O)(O)O)ccc1O', 'Vero E6 infected with SARS-CoV-2', 0.13);

Param item = CCc1c(-c2ccccc2)c(-c2ccccc2)nn1-c1ccccc1-c1cccc(OCC(=O)O)c1 ; retrieve measured inhibition of SARS-CoV-2 cytopathic effect. 3.84

====

Test system: Vero E6 infected with SARS-CoV-2
Test: inhibition of SARS-CoV-2 cytopathic effect; higher = more antiviral protection, active = above 15
Conditions: 100 nM; 48 h
measurement type: inhibition of SARS-CoV-2 cytopathic effect (%)
Give the value, in units of %, as a plain number.

Param item = COc1ccccc1OCC(O)CN1CCN(CC(=O)Nc2c(C)cccc2C)CC1 (stereo not given) ; retrieve measured inhibition of SARS-CoV-2 cytopathic effect. -2.33

Param item = CCCN(CCC)S(=O)(=O)c1ccc(C(=O)O)cc1 ; retrieve measured inhibition of SARS-CoV-2 cytopathic effect. -2.27

Param item = COc1ccc(-c2cc3c(C)nc(N)nc3n([C@H]3CC[C@H](OCCO)CC3)c2=O)cn1 ; retrieve measured inhibition of SARS-CoV-2 cytopathic effect. 0.43

Param item = O=c1c(O)c(-c2ccc(O)c(O)c2)oc2cc(O)cc(O)c12 ; retrieve measured inhibition of SARS-CoV-2 cytopathic effect. 0.21

Param item = COc1ccccc1OC(=O)C(C)c1ccc(CC(C)C)cc1 (stereo not given) [metoxibutropate] ; retrieve measured inhibition of SARS-CoV-2 cytopathic effect. -1.26

====

Quick reference: morphology score of the listed items.
Tested on: Vero E6 infected with SARS-CoV-2
Test: morphology score (similarity to uninfected cells); higher = more like uninfected cells
Settings: 24 h

INSERT INTO results (compound, test_result) VALUES
  ('O=C(O)CCc1ccc(NCc2cccc3c2CCCN3CCOc2ccccc2)cc1F (10 µM)', -0.0144),
  ('Cc1c(CC(C)(C)C(=O)O)n(Cc2ccc(Cl)cc2)c2ccc(F)cc12 (10 µM)', -0.214),
  ('Cc1cn(-c2cc(NC(=O)c3ccc(C)c(Nc4nccc(-c5cccnc5)n4)c3)cc(C(F)(F)F)c2)cn1 [nilotinib] (10 µM)', 0.334),
  ('O=C1C(=O)N(Cc2ccc(Cl)c(Cl)c2)c2ccccc21 [apoptosis-activator-II] (10 µM)', 0.0389),
  ('O=C(O)/C=C/c1ccc(O)cc1 [naringeninic-acid] (10 µM)', 0.0231);

Param item = CC(C)Oc1cccc(CC(=O)N2CCC[C@](CC[N+]34CCC(c5ccccc5)(CC3)CC4)(c3ccc(Cl)c(Cl)c3)C2)c1 (10 µM) ; retrieve measured morphology score. 0.0196

Param item = CC(=O)Oc1cccc(C(=O)O)c1OC(C)=O [dipyrocetyl] (10 µM) ; retrieve measured morphology score. 0.209

Param item = CC#CCOC(=O)c1c(C)nc2sc3c(c2c1N)CCC(O)C3 (configuration not stated) (10 µM) ; retrieve measured morphology score. 0.151

Param item = Cc1c(N2C(=O)[C@@H]3[C@H](O)CCN3C2=O)ccc(C#N)c1Cl (10 µM) ; retrieve measured morphology score. 0.189

Param item = Cc1ccc(C)c([C@H](O)CNC(C)C)c1 [benzenemethanol,-2,5-dimethyl-[[(1-methylethyl)amino]methyl]] (10 µM) ; retrieve measured morphology score. 0.0583

Param item = N[C@H](C(=O)O)c1ccc(O)cc1 [oxfenicine] (10 µM) ; retrieve measured morphology score. 0.246

Param item = Nc1ncn([C@@H]2O[C@H](CO)[C@@H](O)[C@H]2O)c(=O)n1 [azacitidine] (0.833333 µM) ; retrieve measured morphology score. -0.0243

Param item = O=C(O)CSCC(=O)NC1CCSC1=O (configuration not stated) [erdosteine] (10 µM) ; retrieve measured morphology score. -0.0411

Param item = COC(=O)C1=CO[C@@H](O)[C@@H]2C(CO)=CC[C@H]12 [genipin] (10 µM) ; retrieve measured morphology score. 0.291

Param item = O=C1NC(=O)C(c2cnc3ccccn23)=C1c1cn2c3c(cc(F)cc13)CN(C(=O)N1CCCCC1)CC2 (10 µM) ; retrieve measured morphology score. -0.436

Param item = C[C@H]1[C@H](OC(=O)CCC(=O)O)O[C@@H]2O[C@@]3(C)CC[C@H]4[C@H](C)CC[C@@H]1[C@@]24OO3 [artesunate] (0.833333 µM) ; retrieve measured morphology score. 0.157

Param item = CCCCNc1c(C(=O)OCC)c(C)nc2c1cnn2CC [tracazolate] (10 µM) ; retrieve measured morphology score. 0.174

Param item = COC(=O)Nc1nc2cc([S+]([O-])c3ccccc3)ccc2[nH]1 (configuration not stated) [oxfendazole] (10 µM) ; retrieve measured morphology score. 0.15

Param item = Nc1ncnc2c1ncn2[C@@H]1O[C@H](CO)C[C@H]1O [cordycepin] (10 µM) ; retrieve measured morphology score. -0.1

Param item = COC(=O)N[C@H](C(=O)N[C@@H](Cc1ccccc1)[C@@H](O)CN(Cc1ccc(-c2ccccn2)cc1)NC(=O)[C@@H](NC(=O)OC)C(C)(C)C)C(C)(C)C [atazanavir] (10 µM) ; retrieve measured morphology score. 0.129

Param item = Cc1ccc(S(=O)(=O)NC(=O)NN2CCCCCC2)cc1 [tolazamide] (10 µM) ; retrieve measured morphology score. 0.103

Param item = CNCC(=O)O [sarcosine] (10 µM) ; retrieve measured morphology score. 0.0271

Param item = COc1ccc2[nH]c([S@@+]([O-])Cc3ncc(C)c(OC)c3C)nc2c1 [esomeprazole] (10 µM) ; retrieve measured morphology score. -0.181

Param item = CN(C)C(=N)NC(=N)N [metformin] (10 µM) ; retrieve measured morphology score. -0.00931

Param item = CC1(C)CC[C@]2(NC(=O)C(C)(F)F)CC[C@]3(C)[C@H](C(=O)C=C4[C@@]5(C)C=C(C#N)C(=O)C(C)(C)[C@@H]5CC[C@]43C)[C@@H]2C1 [Omaveloxolone (RTA-408)] (10 µM) ; retrieve measured morphology score. -0.212
